# log10 of EC50 per record follows
Test system: multiple myeloma cell line NCI-H929
Protocol Summary: H929 Cell Viability Assay
Type: cell-based, human
Condition Notes: Homo sapiens, NCI-H929, 48 h, NCI-H929 cells, Celltiter-Glo
Readout Type: log10 of EC50 (log10 of the value in µM)

| Molecule | log10 of EC50 |
| --- | --- |
| C[C@H](N)c1ccc(N2CCC[C@@H]2c2csc(NC(=O)c3cccn3Cc3ccncc3)n2)cc1 | 0.64 |
| CC(=O)N[C@@H](C)c1ccc(N2CCC[C@@H]2c2csc(NC(=O)c3cccn3Cc3ccnc(F)c3)n2)cc1 | 0.50 |
| CC(C)n1cc(/C=C/c2csc(NC(=O)c3cccn3Cc3ccnc(F)c3)n2)nc1C#N | 1.32 |
| CNC(=O)N1CC(Oc2ccc(N3CCC[C@@H]3c3csc(NC(=O)c4cccn4Cc4ccnc(F)c4)n3)cc2)C1 | 0.08 |
| CC1CCCc2c(/C=C/c3csc(NC(=O)c4cccn4Cc4ccnc(F)c4)n3)ncn21 (stereo not drawn) | 1.18 |
| CC(C)Oc1ccc(N2CCC[C@@H]2c2csc(NC(=O)c3cccn3Cc3ccnc(F)c3)n2)cc1 | -0.08 |
| CCOC(=O)Nc1ccc(N2CCC[C@@H]2c2csc(NC(=O)c3cccn3Cc3ccnc(F)c3)n2)cc1 | -1.87 |
| O=C(Nc1nc([C@H]2CCCN2c2ccc(C(F)(F)F)cc2)cs1)c1cccn1Cc1ccncc1 | -0.60 |
| CC(C)Oc1ccc(N2CCC[C@@H]2c2csc(NC(=O)c3cccn3Cc3ccncc3)n2)cc1 | -0.35 |
| [2H]c1c([2H])c([2H])c(N2CCC[C@@H]2c2csc(NC(=O)c3cccn3Cc3ccnc(F)c3)n2)c([2H])c1[2H] | -0.19 |
| CC(=O)N1CCC(C)(Oc2ccc(N3CCC[C@@H]3c3csc(NC(=O)c4cccn4Cc4ccnc(F)c4)n3)cc2)CC1 | -0.35 |
| CC(=O)Nc1ccc(N2CCC[C@@H]2c2csc(NC(=O)c3cccn3Cc3ccnc(F)c3)n2)c(F)c1 | -1.65 |
| CC(C)c1ccc(/C=C/c2csc(NC(=O)c3cccn3Cc3cccnc3)n2)nc1 | 1.13 |
| O=C(Nc1nc([C@H]2CCCN2c2ccc(O[C@@H]3CCOC3)cc2)cs1)c1cccn1Cc1ccncc1 | -0.28 |
| O=C(Nc1nc([C@H]2CCCN2c2ccc(OC3CCN(C(=O)C(F)(F)F)CC3)cc2)cs1)c1cccn1Cc1ccnc(F)c1 | -0.33 |
| Cc1ccc(/C=C/c2csc(NC(=O)c3cccn3Cc3ccnc(F)c3)n2)nc1F | 1.05 |
| O=C(Nc1nc([C@H]2CCCN2c2ccccc2)cs1)c1cccn1Cc1cc(F)nc(F)c1 | 0.67 |
| CC(C)n1ccc(/C=C/c2csc(NC(=O)c3cccn3Cc3ccncc3)n2)n1 | 0.85 |
| CN(C)C(=O)Nc1ccc(N2CCC[C@@H]2c2csc(NC(=O)c3cccn3Cc3ccnc(F)c3)n2)cc1 | -0.78 |
| CC(=O)N1CC(Oc2ccc(N3CCC[C@@H]3c3csc(NC(=O)c4cccn4Cc4ccnc(F)c4)n3)cc2)C1 | -0.17 |
| NS(=O)(=O)N1CC(Oc2ccc(N3CCC[C@@H]3c3csc(NC(=O)c4cccn4Cc4ccnc(F)c4)n3)cc2)C1 | 0.51 |
| CC(=O)Nc1ccc(N2CCC[C@@H]2c2csc(NC(=O)c3cccn3Cc3cc(F)nc(F)c3)n2)cc1 | -0.45 |
| NC(=O)c1cc(C(=O)Nc2nc([C@H]3CCCN3c3ccccc3)cs2)n(Cc2ccnc(F)c2)c1 | 1.12 |
